- Assayed Target: mTORC1 (mTOR/GbL/Raptor) (Homo sapiens)
- Protocol Text: mTOR/GbL/Raptor (mTORC1) ELISA Assay
- Assay type: biochemical
- Assay Context: 0.2 nM mTORC1, 10 μM ATP, 50 nM NHis-tagged 4E-BP1; phosphorylation of 4E-BP1; read-out: IC50
pIC50: −log10 of the molar value.
Result Type: pIC50

## Input Consider the molecule shown here: COC(=O)Nc1nc2ccc(-c3ccc4c(c3)CN(C(=O)N3CCC(=O)CC3c3ccc(F)c(F)c3)CCO4)cc2[nH]1 (stereo not shown) [Compound 16] What is its recorded pIC50?
## Output 6.60 to 7.30

## Input Consider the molecule shown here: COC(=O)Nc1nc2ncc(-c3ccc4c(c3)CN(C(=O)N3CCC(CF)CC3)CCO4)cc2[nH]1 [Compound 36] What is its recorded pIC50?
## Output ≥ 7.30

## Input Consider the molecule shown here: NC(=O)C1CCN(C(=O)N2CCOc3ccc(-c4cnc5nc(N)[nH]c5c4)cc3C2)CC1 [Compound 47] What is its recorded pIC50?
## Output ≥ 7.30

## Input Consider the molecule shown here: COC(=O)Nc1nc2ccc(-c3ccc4c(c3)CN(C(=O)N3CCC(=O)CC3c3ccc(F)cc3)CCO4)cc2[nH]1 (stereo not shown) [Compound 14] What is its recorded pIC50?
## Output 6.60 to 7.30

* * *

Consider the following molecules; for each one, report its IC50.

## Input For PI3Kα (Homo sapiens, UniProt P42336), provide IC50 of Cc1nc2ccc(-c3ccc4c(c3)CN(C(=O)N3CC[C@H](O)C[C@@H]3c3ccc(F)c(F)c3)CCO4)cc2[nH]1 (racemic) [Compound 140] please.
## Output 200 to 500 nM

## Input For PI3Kα (Homo sapiens, UniProt P42336), provide IC50 of Cc1nc2ccc(-c3ccc4c(c3)CN(C(=O)N3CCCCC3c3ccc(C(F)(F)F)cc3)CCO4)cc2[nH]1 (stereo not shown) [Compound 120] please.
## Output 200 to 500 nM

## Input For PI3Kα (Homo sapiens, UniProt P42336), provide IC50 of Cc1nc2ccc(-c3ccc4c(c3)CN(C(=O)N3CCCCCCC3)CCO4)cc2[nH]1 [Compound 167] please.
## Output 1000 to 3000 nM

## Input For PI3Kα (Homo sapiens, UniProt P42336), provide IC50 of Cc1nc2ccc(-c3ccc4c(c3)CN(C(=O)N3CCC(O)CC3)CCO4)cc2[nH]1 [Compound 68] please.
## Output 1000 to 3000 nM

* * *

Consider the following compounds; for each one, report its pIC50.
- Assayed Target: UniProt:P42336
pIC50: −log10 of the molar value.

## Input For UniProt:P42336, provide pIC50 of Cc1nc2ccc(-c3ccc4c(c3)CN(C(=O)N3CCC(c5noc(C6CC6)n5)CC3)CCO4)cc2[nH]1 [Compound 163] please.
## Output 5.52 to 6.00

## Input For UniProt:P42336, provide pIC50 of Cc1nc2ccc(-c3ccc4c(c3)CN(C(=O)N3CCC(=O)CC3c3ccccc3)CCO4)cc2[nH]1 (stereo not shown) [Compound 111] please.
## Output 6.70 to 7.12

## Input For UniProt:P42336, provide pIC50 of Cc1nc2ccc(-c3ccc4c(c3)CN(C(=O)N3CCCC(Cc5ccccc5)C3)CCO4)cc2[nH]1 (stereo not shown) [Compound 106] please.
## Output 5.52 to 6.00

## Input For UniProt:P42336, provide pIC50 of Cc1nc2ccc(-c3ccc4c(c3)CN(C(=O)N3CC[C@@H]5CCCC[C@H]5C3)CCO4)cc2[nH]1 (racemic) [Compound 80] please.
## Output 5.52 to 6.00

## Input For UniProt:P42336, provide pIC50 of Cc1nc2ccc(-c3ccc4c(c3)CN(C(=O)N3CCC(F)(F)CC3c3ccccc3)CCO4)cc2[nH]1 (stereo not shown) [Compound 138] please.
## Output 6.00 to 6.30

## Input For UniProt:P42336, provide pIC50 of COC1CCN(C(=O)N2CCOc3ccc(-c4ccc5nc(C)[nH]c5c4)cc3C2)CC1 [Compound 105] please.
## Output 6.00 to 6.30

## Input For UniProt:P42336, provide pIC50 of COC(=O)Nc1nc2ccc(-c3ccc4c(c3)CN(C(=O)N3CCC(=O)CC3c3cccc(F)c3)CCO4)cc2[nH]1 (stereo not shown) [Compound 11] please.
## Output ≥ 7.12

* * *

- Assayed Target: mTORC1 (mTOR/GbL/Raptor) (Homo sapiens, UniProt P42345)
- Protocol Text: mTOR/GbL/Raptor (mTORC1) ELISA Assay
- Assay type: biochemical
- Assay Context: 0.2 nM mTORC1, 10 μM ATP, 50 nM NHis-tagged 4E-BP1; phosphorylation of 4E-BP1; read-out: IC50
pIC50: −log10 of the molar value.
Result Type: pIC50

## Input Consider the molecule shown here: CC1CCN(C(=O)N2CCOc3ccc(-c4ccc(-c5ncc[nH]5)cc4)cc3C2)CC1 [Compound 60] What is its recorded pIC50?
## Output ≥ 7.30

## Input Consider the molecule shown here: Cc1nc2ccc(-c3ccc4c(c3)CN(C(=O)N3CCCC(C)C3)CCO4)cc2[nH]1 (stereo not drawn) [Compound 88] What is its recorded pIC50?
## Output 6.15 to 6.60

## Input Consider the molecule shown here: Cc1nc2ccc(-c3ccc4c(c3)CN(C(=O)N3CC[C@@H](C#N)C[C@@H]3c3ccc(F)c(F)c3)CCO4)cc2[nH]1 (racemic) [Compound 148] What is its recorded pIC50?
## Output 6.60 to 7.30

## Input Consider the molecule shown here: Cc1nc2ccc(-c3ccc4c(c3)CN(C(=O)N3CCC(C)(F)CC3)CCO4)cc2[nH]1 [Compound 83] What is its recorded pIC50?
## Output 6.60 to 7.30

## Input Consider the molecule shown here: Cc1nc2ccc(-c3ccc4c(c3)CN(C(=O)N3CCCc5ccccc53)CCO4)cc2[nH]1 [Compound 85] What is its recorded pIC50?
## Output 6.60 to 7.30

## Input Consider the molecule shown here: Cc1nc2ccc(-c3ccc4c(c3)CN(C(=O)N(C)Cc3ccccc3)CCO4)cc2[nH]1 [Compound 92] What is its recorded pIC50?
## Output 6.60 to 7.30

## Input Consider the molecule shown here: COC(=O)Nc1nc2ccc(-c3ccc4c(c3)CN(C(=O)N3CCCCC3c3ccc(F)cc3)CCO4)cc2[nH]1 (stereo not drawn) [Compound 12] What is its recorded pIC50?
## Output 6.60 to 7.30

## Input Consider the molecule shown here: CS(=O)(=O)Nc1cc(-c2ccc3c(c2)CN(C(=O)N2C4CCC2CC(O)(C(F)(F)F)C4)CCO3)cnc1Cl (stereo not drawn) [Compound 181] What is its recorded pIC50?
## Output ≥ 7.30

## Input Consider the molecule shown here: Nc1nc2ccc(-c3ccc4c(c3)CN(C(=O)N3CCC(=O)CC3c3cccc(F)c3)CCO4)cc2[nH]1 (stereo not drawn) [Compound 28] What is its recorded pIC50?
## Output ≥ 7.30

## Input Consider the molecule shown here: CC1=C[C@H]2CN(C(=O)N3CCOc4ccc(-c5ccc6[nH]c(C)nc6c5)cc4C3)C[C@H]2C1 (racemic) [Compound 91] What is its recorded pIC50?
## Output 6.60 to 7.30

## Input Consider the molecule shown here: COC(=O)Nc1nc2ncc(-c3ccc4c(c3)CN(C(=O)N3CCC(C(C)(F)F)CC3)CCO4)cc2[nH]1 [Compound 34] What is its recorded pIC50?
## Output ≥ 7.30

## Input Consider the molecule shown here: Cc1nc2cc(-c3ccc4c(c3)CN(C(=O)N3CC[C@@](C)(O)C[C@@H]3c3ccccc3)CCO4)ccc2[nH]1 (racemic) [Compound 133] What is its recorded pIC50?
## Output 5.59 to 6.15

## Input Consider the molecule shown here: Cc1cccc(CN(C)C(=O)N2CCOc3ccc(-c4ccc5nc(C)[nH]c5c4)cc3C2)c1 [Compound 153] What is its recorded pIC50?
## Output 6.15 to 6.60

## Input Consider the molecule shown here: Cc1nc2ccc(-c3ccc4c(c3)CN(C(=O)N3CCC(=O)CC3c3ccccc3)CCO4)cc2[nH]1 (stereo not drawn) [Compound 111] What is its recorded pIC50?
## Output ≥ 7.30

## Input Consider the molecule shown here: CC1(O)CCN(C(=O)N2CCOc3ccc(-c4ccc5nc(N)[nH]c5c4)cc3C2)CC1 [Compound 23] What is its recorded pIC50?
## Output ≥ 7.30

* * *

Consider the following molecules; for each one, report its pIC50.
pIC50: −log10 of the molar value.

## Input For PI3Kα (Homo sapiens, UniProt P42336), provide pIC50 of Cc1nc2ccc(-c3ccc4c(c3)CN(C(=O)N3CC[C@@H](C#N)C[C@@H]3c3ccc(F)c(F)c3)CCO4)cc2[nH]1 (racemic) please.
## Output 6.30 to 6.70

## Input For PI3Kα (Homo sapiens, UniProt P42336), provide pIC50 of CS(=O)(=O)Nc1cc(-c2ccc3c(c2)CN(C(=O)N2C4CCC2CC(O)(C(F)(F)F)C4)CCO3)cnc1Cl (stereo not shown) please.
## Output ≥ 7.12

## Input For PI3Kα (Homo sapiens, UniProt P42336), provide pIC50 of Nc1nc2ccc(-c3ccc4c(c3)CN(C(=O)N3CCC(=O)CC3c3cccc(F)c3)CCO4)cc2[nH]1 (stereo not shown) please.
## Output 6.70 to 7.12

## Input For PI3Kα (Homo sapiens, UniProt P42336), provide pIC50 of COC(=O)Nc1nc2ccc(-c3ccc4c(c3)CN(C(=O)N3CCC(O)(c5cccc(C(F)(F)F)c5)CC3)CCO4)cc2[nH]1 please.
## Output ≥ 7.12

## Input For PI3Kα (Homo sapiens, UniProt P42336), provide pIC50 of COC(=O)Nc1nc2ccc(-c3ccc4c(c3)CN(C(=O)N3[C@@H]5CC[C@H]3C[C@](O)(C(F)(F)F)C5)CCO4)cc2[nH]1 please.
## Output ≥ 7.12

## Input For PI3Kα (Homo sapiens, UniProt P42336), provide pIC50 of Cc1nc2ccc(-c3ccc4c(c3)CN(C(=O)N3CCN(c5ncccn5)CC3)CCO4)cc2[nH]1 please.
## Output 6.30 to 6.70

## Input For PI3Kα (Homo sapiens, UniProt P42336), provide pIC50 of Cc1nc2ccc(-c3ccc4c(c3)CN(C(=O)N3CCC(C(C)(C)O)CC3)CCO4)cc2[nH]1 please.
## Output 5.52 to 6.00
